Source: PubChem BioAssay (NCI)

System: U251 CNS
experiment: NCI tumour cell line growth inhibition, 48 h
measured-attribute: TGI

In [3]: df
Out[3]:
                            smiles_notation  measured_attribute  recorded_result
0  O=C(NNC(=O)c1cc2ccccc2[nH]1)c1cc2ccccc2[nH]1                 TGI         > 100 µM
1  COc1ccc(-c2cc(-c3ccc(Cl)cc3)c(C#N)c(=O)n2CCCCCC(=O)Nc2ccccc2N)cc1                 TGI         > 100 µM
2                 CCOC(=O)c1sc(N)nc1N1CCCC1                 TGI         > 100 µM
